Tested on: hLTBP3-proTGFβ1 in the cell-based potency assay (human, UniProt P01137 30-390; Q9NS15 44-1303)
Sequence (P01137 30-390 limits assumed, chain 1 of 2): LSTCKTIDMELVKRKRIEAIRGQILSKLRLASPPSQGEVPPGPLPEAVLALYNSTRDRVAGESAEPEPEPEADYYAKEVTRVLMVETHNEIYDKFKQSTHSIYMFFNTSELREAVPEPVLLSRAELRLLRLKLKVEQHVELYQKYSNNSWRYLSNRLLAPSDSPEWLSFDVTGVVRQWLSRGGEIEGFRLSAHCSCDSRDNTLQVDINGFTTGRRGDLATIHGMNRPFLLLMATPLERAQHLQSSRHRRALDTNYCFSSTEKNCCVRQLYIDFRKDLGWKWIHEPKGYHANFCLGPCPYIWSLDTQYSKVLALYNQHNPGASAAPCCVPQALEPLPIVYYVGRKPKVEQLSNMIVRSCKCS
Sequence (Q9NS15 44-1303 limits assumed, chain 2 of 2): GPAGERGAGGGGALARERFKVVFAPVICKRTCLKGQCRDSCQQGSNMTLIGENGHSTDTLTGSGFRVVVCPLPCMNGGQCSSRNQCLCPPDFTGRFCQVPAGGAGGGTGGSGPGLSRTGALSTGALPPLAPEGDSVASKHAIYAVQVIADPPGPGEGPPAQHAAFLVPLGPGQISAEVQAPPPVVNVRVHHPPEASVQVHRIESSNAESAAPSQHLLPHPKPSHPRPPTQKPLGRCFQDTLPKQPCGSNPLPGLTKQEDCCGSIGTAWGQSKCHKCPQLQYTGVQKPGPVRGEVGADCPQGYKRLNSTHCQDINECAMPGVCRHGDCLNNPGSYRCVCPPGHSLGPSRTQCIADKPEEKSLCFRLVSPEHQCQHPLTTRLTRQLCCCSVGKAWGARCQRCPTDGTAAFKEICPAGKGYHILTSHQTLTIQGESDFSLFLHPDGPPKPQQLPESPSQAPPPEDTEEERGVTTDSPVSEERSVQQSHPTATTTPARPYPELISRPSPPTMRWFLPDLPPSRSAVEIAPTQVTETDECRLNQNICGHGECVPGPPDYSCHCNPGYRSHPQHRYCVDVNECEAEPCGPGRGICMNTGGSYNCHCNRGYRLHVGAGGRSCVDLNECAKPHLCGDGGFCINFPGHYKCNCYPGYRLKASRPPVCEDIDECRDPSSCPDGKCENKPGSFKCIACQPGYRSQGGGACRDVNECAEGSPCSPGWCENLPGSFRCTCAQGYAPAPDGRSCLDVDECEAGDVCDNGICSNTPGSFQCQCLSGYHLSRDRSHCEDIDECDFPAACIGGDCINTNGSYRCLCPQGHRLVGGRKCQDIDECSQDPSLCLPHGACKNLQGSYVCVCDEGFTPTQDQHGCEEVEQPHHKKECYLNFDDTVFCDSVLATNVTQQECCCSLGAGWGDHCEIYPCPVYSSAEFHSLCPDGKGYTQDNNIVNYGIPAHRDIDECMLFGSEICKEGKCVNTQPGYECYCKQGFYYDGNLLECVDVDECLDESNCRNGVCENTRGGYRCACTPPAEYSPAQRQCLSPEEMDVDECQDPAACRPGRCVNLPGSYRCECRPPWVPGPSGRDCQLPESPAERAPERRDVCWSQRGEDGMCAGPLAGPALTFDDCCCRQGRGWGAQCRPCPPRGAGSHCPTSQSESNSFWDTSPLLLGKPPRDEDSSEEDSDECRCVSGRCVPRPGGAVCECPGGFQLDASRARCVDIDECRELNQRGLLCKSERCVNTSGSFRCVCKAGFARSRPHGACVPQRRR
Test method notes: cell-based or functional assay
Assignment: determine reported IC50, reporter cell assay of TGFβ1 activation for the given binders.

State the recorded IC50, reporter cell assay of TGFβ1 activation for this entry: Ab29 (antibody, V domains shown) VH: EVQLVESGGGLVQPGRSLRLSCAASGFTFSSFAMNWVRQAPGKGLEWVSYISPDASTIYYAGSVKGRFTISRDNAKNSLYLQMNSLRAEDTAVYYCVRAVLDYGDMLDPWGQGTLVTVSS VL: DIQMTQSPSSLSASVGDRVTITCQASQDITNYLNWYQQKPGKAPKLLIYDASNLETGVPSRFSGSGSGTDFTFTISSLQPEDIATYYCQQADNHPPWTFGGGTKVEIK
0.8 nM

// query: Ab4 (antibody, V domains shown) VH: EVQLVESGGGLVQPGGSLRLSCAASGFTFSSYSMNWVRQAPGKGLEWVSYISSSSSTIYYADSVKGRFTISRDNAKNSLYLQMNSLRAEDTAVYYCARGVLDYGDMLDPWGQGTLVTVSS VL: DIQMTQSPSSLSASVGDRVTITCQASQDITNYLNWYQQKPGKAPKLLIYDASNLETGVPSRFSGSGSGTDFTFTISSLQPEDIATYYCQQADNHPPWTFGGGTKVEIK
5.6 nM

What about Ab25 (antibody, V domains shown) VH: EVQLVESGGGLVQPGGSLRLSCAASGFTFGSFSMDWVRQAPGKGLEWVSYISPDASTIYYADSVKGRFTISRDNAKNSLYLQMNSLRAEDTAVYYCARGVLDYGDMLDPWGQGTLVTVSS VL: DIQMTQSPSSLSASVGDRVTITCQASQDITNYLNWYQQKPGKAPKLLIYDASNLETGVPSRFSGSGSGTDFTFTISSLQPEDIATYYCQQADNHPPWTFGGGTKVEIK ?
0.51 nM
